Species on record: Rattus norvegicus
Protocol summary: DrugMatrix - Regimen: Daily Repeat
Format: toxicity, organism-based, Sprague-Dawley
Set-up: regimen Daily Repeat, gender Male, age 6-8 weeks
Experimental setup: in vivo, po, 0 mg/kg, 120 h, tissue Plasma, route oral GAVAGE, dose level Control, time 5 day, vehicle 100 % WATER
Field: TOTAL BILIRUBIN. Provide a value for each of the molecules that follow.
Numbers only here, please. The scale is mg/dL.

(Q) # query: TOTAL BILIRUBIN of entry CCN(CC)CCNC(=O)c1ccc(N)cc1 [PROCAINAMIDE]
(A) 0.58

(Q) Same for CCCC(C)C1(CC)C(=O)NC(=O)NC1=O (stereo not given)
(A) 0.13

(Q) Same for "NC12CC3CC(CC(C3)C1)C2"
(A) 0.23

(Q) Same for CNC1=Nc2ccc(Cl)cc2C(c2ccccc2)=[N+]([O-])C1 [CHLORDIAZEPOXIDE]
(A) 0.2

(Q) Same for "CN(C)CCC=C1c2ccccc2CCc2ccccc21"
(A) 0.23

###

Field: CARBON DIOXIDE. Provide a value for each of the compounds that follow.
Species: Rattus norvegicus
Protocol summary: DrugMatrix - Regimen: Daily Repeat
Format: toxicity, organism-based, Sprague-Dawley
Parameters: regimen Daily Repeat, gender Male, age 6-8 weeks
Experimental setup: in vivo, po, 0 mg/kg, 120 h, tissue Plasma, route oral GAVAGE, dose level Control, time 5 day, […]
Numbers only here, please. The scale is mmol/L.

(Q) # query: CARBON DIOXIDE of entry "CC(=O)Oc1ccccc1C(=O)O"
(A) 27.17

(Q) Same for CCc1ccc(CCOc2ccc(CC3SC(=O)NC3=O)cc2)nc1 (configuration not stated)
(A) 30.17

(Q) Same for "O=c1c(-c2ccc(O)cc2)coc2cc(O)cc(O)c12"
(A) 31.83

(Q) Same for CS(=O)(=O)Nc1ccc([N+](=O)[O-])cc1Oc1ccccc1 [NIMESULIDE]
(A) 26.33

(Q) Same for "CCCCC(=O)N(Cc1ccc(-c2ccccc2-c2nnn[nH]2)cc1)[C@H](C(=O)O)C(C)C"
(A) 37

(Q) Same for "CC(C)c1c(C(=O)Nc2ccccc2)c(-c2ccccc2)c(-c2ccc(F)cc2)n1CC[C@@H](O)C[C@@H](O)CC(=O)O"
(A) 31.83

(Q) Same for "c1ccoc1"
(A) 29

###

Organism: Rattus norvegicus
Protocol summary: DrugMatrix - Regimen: Daily Repeat
Assay type: toxicity, organism-based, Sprague-Dawley
Design: regimen Daily Repeat, gender Male, age 6-8 weeks
Experimental setup: in vivo, po, 0 mg/kg, 72 h, tissue Blood, route oral GAVAGE, dose level Control, time 3 day, vehicle 100 % WATER
Field: HEMOGLOBIN. Provide a value for each of the compounds that follow.
Numbers only here, please. The scale is G/DL.

(Q) # query: HEMOGLOBIN of entry NC(=O)c1cccnc1 [NIACINAMIDE]
(A) 12.55

(Q) Same for "NC12CC3CC(CC(C3)C1)C2"
(A) 14.28

(Q) Same for CCN(CC)CCNC(=O)c1ccc(N)cc1 [PROCAINAMIDE]
(A) 14.2

(Q) Same for O=c1[nH]c(=O)n(C2CCCO2)cc1F (stereo unspecified)
(A) 13.97

(Q) Same for "CN(C)CCC=C1c2ccccc2CCc2ccccc21"
(A) 14.28

(Q) Same for "CCN(C(C)=O)c1cccc(-c2ccnc3c(C#N)cnn23)c1"
(A) 14.28
